The following molecules are shown together with reported log10 solubility values.
Details: 25 °C
Heads up, the numbers here are log10 of solubility in mM units.

CC(=O)OCC(COC(C)=O)OC(C)=O :: 2.42
CC[Si](CC)(CC)CC :: -2.65
CC(C)CCOCCC(C)C :: 0.10
CCCCOCCCC :: 0.36
CC1CCCO1 (stereo not drawn) :: 3.26

Can you look up the measured log10 solubility of CC(C)CC(C)O (stereo not drawn) for me?
2.21

---

Conditions: 20 °C
measured endpoint: solubility (mM)
Write the number in mM without appending the unit.

C=COCCCC :: 30
COC(=O)c1ccccc1 :: 15.4
CCCCC(CC)CN (stereo not drawn) :: 19.3
CCCCCOC(C)=O :: 13.2
CCCCCCCCC(=O)O :: 1.79
CCCCOC(=O)CCCCCCCCC(=O)OCCCC :: 0.127
CCCC(=O)OCC :: 47.3
CC(=O)OC(C)CC(C)C (stereo not drawn) :: 9.01
CCCCS :: 6.62
CCCCC(CC)CCl (stereo not drawn) :: 0.673

What value of measured solubility is listed for C=C(C)C(=O)O ?
1030

Then C=COC(C)=O ?
232

Also CCOC(=O)CC(C)C , if possible.
18.5

---

Property: solubility; scope: individual molecules
Conditions: 30 °C
Reply with just the number (in mM).

CCOC(=O)/C=C\C(=O)OCC :: 81.3

Attention now shifts to the item below.
Given the entry Cc1ccc(Cl)c(Cl)c1 , report its measured solubility.
0.161

---

Conditions: 25 °C
log10 solubility values by entry
A value of 2 here means solubility of 100 in µM, since values are log10.

In the examples that follow, each entry is paired with its recorded log10 solubility.
CCCOCCC :: 4.68
CCCC(C)C :: 2.24
COC(=O)/C=C\C(=O)OC :: 5.74

Item N#Cc1ccccc1 has what recorded log10 solubility?
4.29

Queued: FC(F)(F)Cl
2.94

CCCCCCCCC ?
0.24

Entry to check: C=CC(=O)OC
5.76

Then this compound: FC(Cl)(Cl)C(F)(Cl)Cl
2.79

Can you handle CCC(C)C next?
2.83

Same lookup for CCCCOC(=O)/C=C\C(=O)OCCCC , please.
3.34

Next entry: FC(F)(Cl)C(F)(F)Cl
2.88

Likewise for CCCCC ?
2.72

Note, next up: CCCCCl
4.08

Okay, and CCOCC ?
5.91

---

Conditions: 25 °C
measured endpoint: solubility (mM)
Answer format: numeric, mM implied, no suffix.

The examples below pair each entry with its known result.
C[Si](C)(C)C :: 0.222
CCC[N+](=O)[O-] :: 168

Attention now turns to another entry.
Which solubility is reported for this compound? CCCCCC(C)=O
37.7
